Molecular target: matriptase (Homo sapiens)
Construct: purchased R&D Systems 3946-SEB
Sequence (Q9Y5Y6 615-855 limits assumed): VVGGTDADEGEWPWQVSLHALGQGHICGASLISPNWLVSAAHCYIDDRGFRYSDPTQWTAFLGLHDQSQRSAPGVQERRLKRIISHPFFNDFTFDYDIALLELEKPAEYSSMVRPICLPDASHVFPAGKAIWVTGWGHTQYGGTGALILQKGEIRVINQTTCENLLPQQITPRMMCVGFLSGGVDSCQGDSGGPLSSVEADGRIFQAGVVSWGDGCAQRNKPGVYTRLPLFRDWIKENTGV
Assay: FRET peptide cleavage efficiency with matriptase
Type: biochemical
Settings: t = 120 min; 200 uM linker, 1 ug/ml protease, 37° C., buffer B pH 9.0
Square brackets hold non-standard residues; d marks the D form. Ends that are not written are not given here. Tyr(3-NO2) = N[C@@H](Cc1ccc(O)c([N+](=O)[O-])c1)C(=O)O; 2Abz = Nc1ccccc1C(=O)O
experimental.readout: % cleavage Matriptase t = 120 min (%)

INSERT INTO results (substance, study_system, experimental_readout, unit_abbreviation, experimental_result) VALUES
  ('SQYQSSPG ([2Abz]SQYQSSPG[Tyr(3-NO2)]-NH2) [LNK067]', 'matriptase (Homo sapiens)', '% cleavage Matriptase t = 120 min', '%', 0),
  ('SSRGRRGPYMLQG ([2Abz]SSRGRRGPYMLQG[Tyr(3-NO2)]-NH2) [LNK021]', 'matriptase (Homo sapiens)', '% cleavage Matriptase t = 120 min', '%', 100),
  ('GSGSGSGS ([2Abz]GSGSGSGS[Tyr(3-NO2)]-NH2) [LNK064]', 'matriptase (Homo sapiens)', '% cleavage Matriptase t = 120 min', '%', 0),
  ('KLYSSKQ ([2Abz]KLYSSKQ[Tyr(3-NO2)]-NH2) [LNK071]', 'matriptase (Homo sapiens)', '% cleavage Matriptase t = 120 min', '%', 0),
  ('GSSVYSGR ([2Abz]GSSVYSGR[Tyr(3-NO2)]-NH2) [LNK080]', 'matriptase (Homo sapiens)', '% cleavage Matriptase t = 120 min', '%', 10),
  ('RGRRHSSKLQPLGYFGKL ([2Abz]RGRRHSSKLQPLGYFGKL[Tyr(3-NO2)]-NH2) [LNK062]', 'matriptase (Homo sapiens)', '% cleavage Matriptase t = 120 min', '%', 100),
  ('SGRVLPAGLVG ([2Abz]SGRVLPAGLVG[Tyr(3-NO2)]-NH2) [LNK007]', 'matriptase (Homo sapiens)', '% cleavage Matriptase t = 120 min', '%', 97);
